- target-entity: MDM2 (Homo sapiens)
- Sequence (Q00987 1-125): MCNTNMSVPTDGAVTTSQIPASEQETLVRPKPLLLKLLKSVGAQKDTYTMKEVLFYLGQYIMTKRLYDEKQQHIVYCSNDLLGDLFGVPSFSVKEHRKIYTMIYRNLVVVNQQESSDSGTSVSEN
- measurement-description: Competitive fluorescence polarization assay for MDM2
- Assay type: binding
- condition-context: competitive FP assay, MDM2; read-out: IC50 (MDM2)
Where a SMILES comes first, the peptide text is derived from it. Bridges are numbered along the chain shown (N, C = ends). [ ]: non-standard residue; d: D form. R8 = C=CCCCCCC[C@@](C)(N)C(=O)O; Cba = N[C@@H](CC1CCC1)C(=O)O; S5 = C=CCCC[C@](C)(N)C(=O)O; Nle = CCCC[C@H](N)C(=O)O
readout-type: IC50

The molecule listed as CCCC[C@H](NC(=O)[C@H](C)NC(=O)[C@H](C)NC(=O)[C@]1(C)CCCC=CCCCCCC[C@@](C)(NC(=O)[C@H](Cc2ccccc2)NC(=O)[C@@H](NC(=O)[C@H](CC(C)C)NC(C)=O)[C@@H](C)O)C(=O)N[C@@H](CCC(=O)O)C(=O)N[C@@H](Cc2ccc(O)cc2)C(=O)N[C@@H](Cc2c[nH]c3ccccc23)C(=O)N[C@@H](C)C(=O)N[C@@H](CCC(N)=O)C(=O)N[C@@H](CC2CCC2)C(=O)N1)C(=O)N[C@@H](C)C(=O)N[C@@H](C)C(N)=O [compound 380] (Ac-LTF[R8]EYWAQ[Cba][S5]AA[Nle]AA-NH2; staple 4-11) has a reported IC50 of 10 to 100 nM
